meta.source: PubChem BioAssay AID1159580

assay: chemical genetic growth profiling, strain panel (AID 1159580);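 note: tested at 20 µM; growth read once vehicle control cultures reached saturation at 30 °C; 1 = growth at the plate median or of vehicle wells; lower values mean less growth of the strain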; conditions: S. cerevisiae deletion strains, growth OD, locus YNL224C, strain SQS1, hits give low values
About 2,000 (36%) of roughly 5,500 compounds were called active. Another 18% or so got no clear call; they are omitted. Some of the results follow.
measured endpoint: normalized growth

| molecule | measured endpoint | value observed |
| --- | --- | --- |
| O=C1C2C=CC=CC2=NC(=S)N1CCN1CCC(=C(c2ccc(F)cc2)c2ccc(F)cc2)CC1 (stereo unspecified) | normalized growth | 1.02 |
| CCN(CC)CCOC(=O)c1cc(Cl)c(N)cc1OC | normalized growth | 1 |
| CC(C)NC[C@H](O)COc1cccc2[nH]ccc12 | normalized growth | 1.01 |
| Nc1ncnc2c1ncn2C1OC2COP(O)(=S)O[C@@H]2[C@@H]1O (stereo partly specified) | normalized growth | 1.02 |
| C[C@H](Cc1ccccc1)Nc1ncnc2c1ncn2[C@@H]1O[C@H](CO)[C@H](O)C1O (stereo partly specified) | normalized growth | 1 |
| O=c1[nH]c(=O)c2nc3ccccc3nc2[nH]1 | normalized growth | 0.999 |
| O=C(O)[C@@H]1CCN1 | normalized growth | 0.963 |
| O=C(O)/C=C/C(=O)O | normalized growth | 1 |
| NC(Cc1cccc(-c2ccccc2CP(=O)(O)O)c1)C(=O)O (stereo unspecified) | normalized growth | 1 |
| NC(CCCCCP(=O)(O)O)C(=O)O (stereo unspecified) | normalized growth | 1.01 |
| Nc1nc(OCc2ccccc2)c2[nH]cnc2n1 | normalized growth | 1.02 |
| CN(C)CCCC1(c2ccc(F)cc2)OCc2cc(C#N)ccc21 (stereo unspecified) | normalized growth | 1.02 |
| COc1cc(CC(=O)O)ccc1O | normalized growth | 0.985 |
| O=C(O)c1cc2cc(F)ccc2[nH]1 | normalized growth | 0.973 |
| NS(=O)(=O)c1cc2c(cc1Cl)NC=NS2(=O)=O | normalized growth | 0.987 |
| O=C(c1ccc(OCCN2CCCCC2)cc1)c1c(-c2ccc(O)cc2)sc2cc(O)ccc12 | normalized growth | 1.01 |
| CC[C@@H]1C=C/C=C/C[C@H](C)[C@@H](O)[C@](C)(O)C(=O)[C@H](C)[C@@H](O)[C@H](C)C(=O)[C@H](C)[C@@H](O)[C@H](C)/C=C/C(=O)O[C@H]2[C@@H](C)[C@@H](CC1)O[C@@]1(CC[C@@H](C)[C@@H](CC(C)O)O1)[C@@H]2C (stereo partly specified) | normalized growth | 0.993 |
| CN1CC[C@@]2(C)c3cc(O)ccc3N(C)C12 (stereo partly specified) | normalized growth | 1.02 |
| c1ccc2c(c1)CCCC2C1=NCCN1 (stereo unspecified) | normalized growth | 1 |
| COc1cc(C(O)CO)ccc1O (stereo unspecified) | normalized growth | 0.988 |
| Cc1ccc(C(=O)Nc2ccc(S(=O)(=O)O)c3cc(S(=O)(=O)O)cc(S(=O)(=O)O)c23)cc1NC(=O)c1cccc(NC(=O)Nc2cccc(C(=O)Nc3cc(C(=O)Nc4ccc(S(=O)(=O)O)c5cc(S(=O)(=O)O)cc(S(=O)(=O)O)c45)ccc3C)c2)c1 | normalized growth | 1.02 |

* * *

assay: chemical genetic growth profiling, strain panel (AID 1159580);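 note: tested at 20 µM; growth read once vehicle control cultures reached saturation at 30 °C; 1 = growth at the plate median or of vehicle wells; lower values mean less growth of the strain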; settings: S. cerevisiae deletion strains, growth OD, locus YMR223W, strain ubp8, hits give low values
Hit rate of the full screen: of about 5,500 compounds, about 2,000 (36%) were called active. About 18% were inconclusive and are not listed. The list shows a part of the results.
// classify: if (normalized growth < 1) t else f

| compound | classification |
| --- | --- |
| CC[C@@]1(O)C[C@H](O)c2c(cc3c(c2O)C(=O)c2c(O)ccc(O)c2C3=O)[C@H]1C(=O)OC | t |
| COc1ccc2c(c1)OC1(O)COc3cc(OC)c(OC)cc3C1=C2 (stereo unspecified) | t |
| O=C1C(Cl)=C(Cl)C(=O)C(Cl)=C1Cl | t |
| C=C1CCC2[C@](C)(CO)[C@H](O)CC[C@@]2(C)[C@@H]1C/C=C1/C(=O)OC[C@H]1O (stereo partly specified) | f |
| c1ccc2c(c1)sc1ccccc12 | t |
